// reported Kd for each item listed
Target: T1, mouse tenascin-C rCd4-His-FBG (rat; mouse, UniProt P05540 207-392, limits assumed)
T1 construct: domain: domains 3 and 4; C-terminal FBG fusion; biotinylated in the ELISA screen; also called Mu TNC; mouse TNC rCd4-His-FBG; not shown: 6His tag
T1 sequence (chain (part 1 of 2)): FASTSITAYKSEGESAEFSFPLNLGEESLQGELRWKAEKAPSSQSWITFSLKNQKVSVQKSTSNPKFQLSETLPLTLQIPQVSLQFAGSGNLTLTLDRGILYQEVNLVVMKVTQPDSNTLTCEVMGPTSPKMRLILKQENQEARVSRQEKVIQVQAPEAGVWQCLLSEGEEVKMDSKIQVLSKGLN
T1 sequence (chain (part 2 of 2)): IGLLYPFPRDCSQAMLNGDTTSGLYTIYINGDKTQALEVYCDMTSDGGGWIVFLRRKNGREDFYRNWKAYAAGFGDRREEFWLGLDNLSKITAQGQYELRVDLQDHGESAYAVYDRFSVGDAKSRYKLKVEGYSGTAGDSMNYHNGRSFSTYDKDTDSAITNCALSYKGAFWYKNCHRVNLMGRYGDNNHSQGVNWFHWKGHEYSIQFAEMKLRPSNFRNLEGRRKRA
Assay: SPR, captured Fab, 25 C

binder: Fab D8 (Fab, V domains shown, monomeric Fab) VH: EVQLVQSGAEVKKPGASVKVSCKASGYTFTSYGISWVRQAPGQGLEWMGWISAYNGNTNYAQKLQGRVTMTTDTSTSTAYMELRSLRSDDTAVYYCARNQDSSSDYWGQGTLVTVSS VL: DIQMTQSPASLPTSVGDRVTITCRASQYIQGFLNWYQQKPGKAPKLLIYDASNLETGVPSRFSGSGSGTDFTLTISSLQPEDFATYYCQQSYSTLQTFGQGTKVDIKR
Kd: 48.4 nM
--
binder: Fab B12 (Fab, V domains shown, monomeric Fab) VH: QVQLVESGGGLVQPGRSLRLSCAASGFTFDDYAMHWVRQAPGKGLEWVSGISGSGGSTYYADSVKGRFTISRDNAKNSLYLQMNSLRAEDTALYYCAKDISAVPDTFDIWGQGTMVTVSS VL: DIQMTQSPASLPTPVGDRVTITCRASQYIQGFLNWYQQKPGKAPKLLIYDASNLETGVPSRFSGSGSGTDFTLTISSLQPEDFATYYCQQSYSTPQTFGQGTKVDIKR
Kd: 13 nM
--
binder: Fab F3 (Fab, V domains shown, monomeric Fab) VH: EVQLLESGGGLVQPGGSLRLSCAASGFTFSSYGMHWVRQAPGKGLEWVAVISYDGSNKYYADSVKGRFTISRGNSKNTLYLQMNSLKAEDTAVYYCAREGYDQLFSAESNAFDIWGQGTLVTVSS VL: NFMLAQPHSVSESPGKTVTISCTRSSGSIASYFVQWFQQRPGSAPTAVIYEDNQRPSGVPDRFSGSIDSSSNSASLTISGLKTEDEADYYCQSYDSSNWVFGGGTKVTVLG
Kd: 70.6 nM
--
binder: Fab 2A5 (Fab, V domains shown, monomeric Fab) VH: EVRLVQSGAEVKKPGASVKVSCKVSGYTLTELSMHWVRQAPGKGLEWMGGFDPEDGETIYAQKFQGRVTMTEDTSTDTAYMELSSLRSEDTAVYYCATAQKETYALTYWGQGTLVTVSS VL: DIQMTQSPASLPTSVGDRVTITCRASQYIQGFLNWYQQKPGKAPRLLIYAASTLQDGVPSRFSGSGYGTDFTLTISSLQPEDFATYYCQQSYSTPWTFGQGTKVEIKR
Kd: 78.6 nM
